// data source = PubChem BioAssay (NCATS)

experiment: NFAT Signaling Pathway (AID 444); details: Jurkat NFAT-bla M1, carbachol, beta-lactamase ratio, 5 h; at 7.69 µM (top of the series) unless noted;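 further: carbachol stimulus at about its EC50 of 1 µM final; on the % scale 0 is the no-effect control and ±100 the full control effect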
Results filed as inconclusive are left out. Activity calls are given as the source filed them. The call rests on the fitted dose curve; in most records, active means well fitted curve in either direction with a large enough effect (not every such curve was filed as active); inconclusive means small, poorly fitted or top-dose-only effect, or another doubt; inactive means flat fitted curve, though single readings scatter.
quantity_name: activity change, negative = inhibition

Example cases with answers are listed next.
COc1ccccc1-c1cc(-n2ccnc2)ncn1: 7.77% (inactive)
c1cncc(-c2nc(NCCN3CCOCC3)c3ccccc3n2)c1: 7.81% (inactive)
c1cncc(-c2cncnc2NCc2cccs2)c1: 23.6% (inactive)

Prompt: Respond only with activity change, negative = inhibition recorded for "N[C@H](Cn1ccc(=O)c(O)c1)C(=O)O"
Response: -2.41% [at 17.2 µM] (inactive)

====

tested on: 3D7; test: qHTS profiling for inhibitors of Plasmodium falciparum proliferation (AID 504749);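 further: 0% = DMSO vehicle and full inhibition = artemisinin control; nearly all actives have a fitted effect of over 60% in size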; conditions: P. falciparum in erythrocytes, SYBR Green DNA, 72 h; series mostly up to 12.8 µM
Results filed as inconclusive are left out. Calls of active or inactive are those of the source. Calls follow the shape of the dose curve; as a rule, active = well fitted inhibition curve with a large enough effect; inconclusive = small, poorly fitted or top-dose-only effect; inactive = flat fitted curve, though single readings scatter.
Assign a class; possible classes are active, inactive

Consider the following illustrative entries.
NS(=O)(=O)c1cc([C@@]2(O)NC(=O)c3ccccc32)ccc1Cl: inactive
CCCN(CCC)C(=O)[C@@H](CCC(=O)O)NC(=O)c1ccccc1: inactive
CC(=O)O[C@@H](C)C[N+](C)(C)C: inactive

Prompt: For "CCCN[C@@H](C)C(=O)Nc1ccccc1C" , what call appears in the results of this test?
Response: inactive

Prompt: For "CN(N=O)C(=O)N[C@H]1[C@@H](O)[C@H](O)[C@H](CO)O[C@@H]1O" , what call appears in the results of this test?
Response: inactive

Prompt: For "C[C@@H]1CCC[C@H](C)N1NC(=O)c1ccc(Cl)c(S(N)(=O)=O)c1" , what call appears in the results of this test?
Response: inactive

Prompt: For "CC1(C)Oc2ccc(C#N)cc2[C@H](N2CCCC2=O)[C@H]1O" , what call appears in the results of this test?
Response: inactive

Prompt: For "CN[C@@H]1[C@H](O[C@@H]2O[C@H](CO)[C@@H](N)[C@H](O)[C@@H]2O)O[C@H]2C[C@@H](N)[C@@H](O[C@H]3[C@@H](O)[C@H](O)[C@H](N)C[C@@H]3N)O[C@H]2[C@H]1O" , what call appears in the results of this test?
Response: inactive

Prompt: For "N[C@@H](CO)C(=O)NNCc1ccc(O)c(O)c1O" , what call appears in the results of this test?
Response: inactive

Prompt: For "CCC[C@H]1C(=O)N2C(N(C)C)=Nc3ccc(C)cc3N2C1=O" , what call appears in the results of this test?
Response: inactive

Prompt: For "COc1ccc(C[C@@H]2c3cc(OC)c(OC)cc3CC[N@+]2(C)CCC(=O)OCCCCCOC(=O)CC[N@@+]2(C)CCc3cc(OC)c(OC)cc3[C@H]2Cc2ccc(OC)c(OC)c2)cc1OC" , what call appears in the results of this test?
Response: inactive

====

Assay: Stat Signaling Pathway (AID 446);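 further: ME-180 cervical cancer cells given 40 pM IL-6 alongside compound; SIE-controlled beta-lactamase reporter measured as 460/530 nm FRET emission ratio; on the % scale 0 is the no-effect control and ±100 the full control effect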
Settings: ME-180 (cervical carcinoma) SIE beta-lactamase reporter, IL-6 stimulated, 5 h; at 7.69 µM (top of the series) unless noted
Description: NCGC Assay Overview: The IL-6/STAT signaling pathway was assayed in ME-180 cervical carcinoma cells by a beta-lactamase reporter gene controlled by a STAT Inducible Element (SIE). This reporter is induced by IL-6 at 40 pM AC50 and inhibited by the pan JAK inhibitor, 2-(1,1-Dimethylethyl)-9-fluoro-3,6-dihydro-7H-benz[h]-imidaz[4,5-f]isoquinolin-7-one, at approximately 10 nM AC50. Plated cells were incubated overnight and on the following day, stimulated with 40 pM IL-6 for 5 hrs. […]
Records with an inconclusive call do not appear. Active and inactive are the calls of the source. The call rests on the fitted dose curve; in most records, active means well fitted curve in either direction with a large enough effect (not every such curve was filed as active); inconclusive means small, poorly fitted or top-dose-only effect, or another doubt; inactive means flat fitted curve, though single readings scatter.
quantity_name: activity, negative = inhibition

Example cases with answers are listed next.
c1nc(NCCN2CCOCC2)c2cc(-c3ccoc3)ccc2n1: -6.63% (inactive)
CN(C)c1ncc2nc(-c3cc(F)cc(F)c3)c(=O)n(-c3ccccc3)c2n1: 12.5% (inactive)
FC(F)(F)c1ccccc1-c1cncnc1NCCN1CCOCC1: -11.6% (inactive)
CS(=O)(=O)N1CCC2(CC1)CN(c1ccccn1)C2: 5.22% (inactive)
Cc1ccccc1-c1cncnc1NC1CCNCC1: 20.9% (inactive)

Prompt: Respond only with activity, negative = inhibition recorded for "O=C(Nc1ccccc1)N1CCCC2(CCN(C(=O)c3cnccn3)CC2)C1"
Response: 2.67% (inactive)

Prompt: Respond only with activity, negative = inhibition recorded for "Cn1c(=O)c(-c2cccc(F)c2)nc2cncnc21"
Response: -5.84% (inactive)

Prompt: Respond only with activity, negative = inhibition recorded for "O=C(c1cc(C(F)(F)F)cc(C(F)(F)F)c1)N1CCC2(CCCN(Cc3ccccc3)C2)CC1"
Response: -0.518% (inactive)

Prompt: Respond only with activity, negative = inhibition recorded for "COC(=O)N1CCC2(CCCN(C(=O)Nc3ccccc3)C2)CC1"
Response: -0.296% (inactive)

Prompt: Respond only with activity, negative = inhibition recorded for "Cn1cc(-c2nc3cncnc3n(C3CC3)c2=O)c2ccccc21"
Response: -6.67% (inactive)

Prompt: Respond only with activity, negative = inhibition recorded for "COc1ccccc1CNc1ccnc(-c2ccccc2CN(C)C)n1"
Response: 3.25% (inactive)

Prompt: Respond only with activity, negative = inhibition recorded for "COc1cccc(-c2cc(NCc3cnc(C)cn3)ncn2)c1"
Response: -1.25% (inactive)

Prompt: Respond only with activity, negative = inhibition recorded for "O=C(c1csnn1)N1CCC2(CCCN(c3cccc(-c4ccccc4)c3)C2)CC1"
Response: -5.72% (inactive)

Prompt: Respond only with activity, negative = inhibition recorded for "CN(C)Cc1ccccc1-c1cc(-n2ccnc2)ncn1"
Response: 1.39% (inactive)

Prompt: Respond only with activity, negative = inhibition recorded for "COc1cccc(-c2nccc(NCc3ccc(OC)cc3OC)n2)c1"
Response: -11.4% (inactive)

Prompt: Respond only with activity, negative = inhibition recorded for "Cc1cnc(CNc2cc(-c3ccccc3C)ncn2)cn1"
Response: 4.06% (inactive)

Prompt: Respond only with activity, negative = inhibition recorded for "Cn1c(=O)c(-c2ccc(F)cc2)nc2cncnc21"
Response: -0.562% (inactive)

Prompt: Respond only with activity, negative = inhibition recorded for "CN(Cc1ccco1)c1ccnc(-c2ccoc2)n1"
Response: -14.2% (inactive)

Prompt: Respond only with activity, negative = inhibition recorded for "CC(=O)N1CCC2(CCN(Cc3ccccc3)CC2)CC1"
Response: -5.27% (inactive)

Prompt: Respond only with activity, negative = inhibition recorded for "Cc1noc(C)c1-c1nc(NCc2cccs2)c2ccccc2n1"
Response: -8.06% (inactive)

Prompt: Respond only with activity, negative = inhibition recorded for "O=C(c1cnccn1)N1CCC2(CCCN(Cc3nccs3)C2)CC1"
Response: -4.76% (inactive)
